- protocol-text: RP-HPLC determination of peptide hydrophobicity
- Assay type: physicochemical
- experimental-parameters: RP-HPLC retention as measure of hydrophobicity; Waters X-Bridge Shield RP-18 3.0 × 100 mm, 3.5 μm; linear 20–65% acetonitrile in water over 30 min, 0.1% TFA, 0.5 mL/min, 25.0 °C, UV 214 nm; 1 g/L; triplicate
- Procedure: The peptides were analyzed by RP-HPLC to determine relative hydrophobicity vs. retention time of each compound. In general, more hydrophobic lipopeptides will elute later than hydrophilic ones. […] To determine peptide hydrophobicity, a Waters Alliance e2695 system with a Waters 2998 PDA Detector (software-Empower 3, Waters, Milford, MA, USA) was used. […] Each peptide sample was analyzed in triplicate. […]
Where a SMILES comes first, the peptide text is derived from it. Bridges are numbered along the chain shown (N, C = ends). The star is where a group is joined. Palmitoyl = CCCCCCCCCCCCCCCC(=O)*
property-measured: reduced retention time t’R (min)
Numbers only, in min.

compound	reduced retention time t’R, min
CCCCCCCCCCCCCCCC(=O)N[C@@H](CCCCN)C(=O)N[C@@H](CCCCN)C(=O)N[C@@H](CCCNC(=N)N)C(=O)N[C@@H](CCCCN)C(N)=O [L5, C16-KKRK-NH2] (Palmitoyl-KKRK-NH2)	15.01

For each entry beneath this line, provide reported reduced retention time t’R.
1. CCCCCCCCCCCCCCCC(=O)N[C@H]1CSSC[C@@H](C(N)=O)NC(=O)[C@H](CCCCN)NC(=O)[C@H](CCCNC(=N)N)NC(=O)[C@H](CCCCN)NC(=O)[C@H](CCCCN)NC1=O [C5, C16-CKKRKC-NH2] (Palmitoyl-CKKRKC-NH2; disulfide 1-6)
2. CCCCCCCCCCCCCCCC(=O)N[C@H]1CSSC[C@@H](C(N)=O)NC(=O)[C@H](CCCCN)NC(=O)[C@H](CCCCN)NC(=O)[C@H](CCCCN)NC1=O [C1, C16-CKKKC-NH2] (Palmitoyl-CKKKC-NH2; disulfide 1-5)
3. CCCCCCCCCCCCCCCC(=O)N[C@H]1CSSC[C@@H](C(N)=O)NC(=O)[C@H](CCCNC(=N)N)NC(=O)[C@H](CCCCN)NC(=O)[C@H](CCCCN)NC(=O)[C@H](CCCCN)NC1=O [C6, C16-CKKKRC-NH2] (Palmitoyl-CKKKRC-NH2; disulfide 1-6)

## Output
1: 16.16; 2: 18.05; 3: 16.32

----------
- System: Staphylococcus epidermidis ATCC 14990
- Assay type: cell-based
- experimental-parameters: ATCC 14990, 24 h
Where a SMILES comes first, the peptide text is derived from it. Bridges are numbered along the chain shown (N, C = ends). The star is where a group is joined. Palmitoyl = CCCCCCCCCCCCCCCC(=O)*
property-measured: MBEC S. epidermidis (µg/mL)
One number for each entry, in µg/mL.

compound	MBEC S. epidermidis [µg/mL]
CCCCCCCCCCCCCCCC(=O)N[C@@H](CCCNC(=N)N)C(=O)N[C@@H](CCCNC(=N)N)C(=O)N[C@@H](CCCCN)C(=O)N[C@@H](CCCCN)C(N)=O [L7, C16-RRKK-NH2] (Palmitoyl-RRKK-NH2)	64

## Input Consider the compound shown here: CCCCCCCCCCCCCCCC(=O)N[C@H]1CSSC[C@@H](C(N)=O)NC(=O)[C@H](CCCCN)NC(=O)[C@H](CCCCN)NC(=O)[C@H](CCCNC(=N)N)NC(=O)[C@H](CCCCN)NC1=O [C4, C16-CKRKKC-NH2] (Palmitoyl-CKRKKC-NH2; disulfide 1-6) What is its recorded MBEC S. epidermidis?
## Output 32

----------
Provide the recorded MBEC C. albicans for the entries that follow.
- System: Candida albicans ATCC 10231
- Format: cell-based
- experimental-parameters: ATCC 10231, 24 h
Where a SMILES comes first, the peptide text is derived from it. Bridges are numbered along the chain shown (N, C = ends). The star is where a group is joined. Palmitoyl = CCCCCCCCCCCCCCCC(=O)*
Give bare numbers, in µg/mL.

compound	measured-target	result-unit	MBEC C. albicans
CCCCCCCCCCCCCCCC(=O)N[C@@H](CCCCN)C(=O)N[C@@H](CCCCN)C(=O)N[C@@H](CCCCN)C(=O)N[C@@H](CCCNC(=N)N)C(N)=O [L6, C16-KKKR-NH2] (Palmitoyl-KKKR-NH2)	Candida albicans ATCC 10231	µg/mL	128
CCCCCCCCCCCCCCCC(=O)N[C@H]1CSSC[C@@H](C(N)=O)NC(=O)[C@H](CCCNC(=N)N)NC(=O)[C@H](CCCCN)NC(=O)[C@H](CCCCN)NC(=O)[C@H](CCCCN)NC1=O [C6, C16-CKKKRC-NH2] (Palmitoyl-CKKKRC-NH2; disulfide 1-6)	Candida albicans ATCC 10231	µg/mL	64
CCCCCCCCCCCCCCCC(=O)N[C@@H](CCCCN)C(=O)N[C@@H](CCCNC(=N)N)C(=O)N[C@@H](CCCCN)C(=O)N[C@@H](CCCCN)C(N)=O [L4, C16-KRKK-NH2] (Palmitoyl-KRKK-NH2)	Candida albicans ATCC 10231	µg/mL	128

Next compound, please.
## Input Consider the compound shown here: CCCCCCCCCCCCCCCC(=O)N[C@H]1CSSC[C@@H](C(N)=O)NC(=O)[C@H](CCCCN)NC(=O)[C@H](CCCNC(=N)N)NC(=O)[C@H](CCCCN)NC(=O)[C@H](CCCCN)NC1=O [C5, C16-CKKRKC-NH2] (Palmitoyl-CKKRKC-NH2; disulfide 1-6) What is its recorded MBEC C. albicans?
## Output 64

----------
- Test system: Pseudomonas aeruginosa ATCC 9027
- Assay type: cell-based
- experimental-parameters: ATCC 9027, 24 h
Where a SMILES comes first, the peptide text is derived from it. Bridges are numbered along the chain shown (N, C = ends). The star is where a group is joined. Palmitoyl = CCCCCCCCCCCCCCCC(=O)*
property-measured: MBIC P. aeruginosa (µg/mL)
Give bare numbers, in µg/mL.

Some molecules with recorded MBIC P. aeruginosa:
molecule	result-unit	result-number
CCCCCCCCCCCCCCCC(=O)N[C@H]1CSSC[C@@H](C(N)=O)NC(=O)[C@H](CCCCN)NC(=O)[C@H](CCCCN)NC(=O)[C@H](CCCCN)NC1=O [C1, C16-CKKKC-NH2] (Palmitoyl-CKKKC-NH2; disulfide 1-5)	µg/mL	128
CCCCCCCCCCCCCCCC(=O)N[C@H]1CSSC[C@@H](C(N)=O)NC(=O)[C@H](CCCNC(=N)N)NC(=O)[C@H](CCCCN)NC(=O)[C@H](CCCCN)NC(=O)[C@H](CCCCN)NC1=O [C6, C16-CKKKRC-NH2] (Palmitoyl-CKKKRC-NH2; disulfide 1-6)	µg/mL	64
CCCCCCCCCCCCCCCC(=O)N[C@@H](CCCCN)C(=O)N[C@@H](CCCCN)C(=O)N[C@@H](CCCNC(=N)N)C(=O)N[C@@H](CCCCN)C(N)=O [L5, C16-KKRK-NH2] (Palmitoyl-KKRK-NH2)	µg/mL	64
CCCCCCCCCCCCCCCC(=O)N[C@@H](CCCCN)C(=O)N[C@@H](CCCCN)C(=O)N[C@@H](CCCCN)C(=O)N[C@@H](CCCCN)C(N)=O [L2, C16-KKKK-NH2] (Palmitoyl-KKKK-NH2)	µg/mL	64
CCCCCCCCCCCCCCCC(=O)N[C@H]1CSSC[C@@H](C(N)=O)NC(=O)[C@H](CCCCN)NC(=O)[C@H](CCCCN)NC(=O)[C@H](CCCNC(=N)N)NC(=O)[C@H](CCCNC(=N)N)NC1=O [C7, C16-CRRKKC-NH2] (Palmitoyl-CRRKKC-NH2; disulfide 1-6)	µg/mL	128
CCCCCCCCCCCCCCCC(=O)N[C@@H](CCCNC(=N)N)C(=O)N[C@@H](CCCCN)C(=O)N[C@@H](CCCCN)C(=O)N[C@@H](CCCCN)C(N)=O [L3, C16-RKKK-NH2] (Palmitoyl-RKKK-NH2)	µg/mL	64
CCCCCCCCCCCCCCCC(=O)N[C@@H](CCCCN)C(=O)N[C@@H](CCCCN)C(=O)N[C@@H](CCCCN)C(N)=O [L1, C16-KKK-NH2]	µg/mL	32
CCCCCCCCCCCCCCCC(=O)N[C@H]1CSSC[C@@H](C(N)=O)NC(=O)[C@H](CCCCN)NC(=O)[C@H](CCCCN)NC(=O)[C@H](CCCNC(=N)N)NC(=O)[C@H](CCCCN)NC1=O [C4, C16-CKRKKC-NH2] (Palmitoyl-CKRKKC-NH2; disulfide 1-6)	µg/mL	32

Next molecule, please.
## Input // fetch Pseudomonas aeruginosa ATCC 9027 MBIC P. aeruginosa for CCCCCCCCCCCCCCCC(=O)N[C@H]1CSSC[C@@H](C(N)=O)NC(=O)[C@H](CCCCN)NC(=O)[C@H](CCCCN)NC(=O)[C@H](CCCCN)NC(=O)[C@H](CCCNC(=N)N)NC1=O [C3, C16-CRKKKC-NH2] (Palmitoyl-CRKKKC-NH2; disulfide 1-6)
## Output 64
